tested on: HepG2; assay: GSK_TCMDC: Percent inhibition of human HepG2 cell line. Test compounds present at 10uM.; type: functional
Hi! Could you tag entries with Inhibition below 10% as 1, and those at or above as 0? Much appreciated.

Study these solved cases before continuing.
O=C(/C=C/c1ccc(Cl)c(Cl)c1)NC1CCC(CN2CCC(c3nc4ccccc4s3)CC2)CC1 (centres undefined)	0
COc1ccc(-c2ccc(NC(=O)c3cccc(F)c3)cc2)cc1CN1CCCN(C)CC1.O=C(O)C(F)(F)F	0
COc1cccc(CN2CCCN(Cc3cccc(NC(=O)c4cc5ccccc5s4)c3)CC2)c1.O=C(O)C(F)(F)F	0

Is Inhibition of Cc1cc(N[C@@H](CC(C)C)C(=O)NCCOc2ccccc2)nc(NCCc2ccccc2)n1.O=C(O)C(F)(F)F strictly below 10%?
0

Is Inhibition of COc1cccc(C=NNc2cc(C)nc3c(OC)cccc23)c1 strictly below 10%?
1

Is Inhibition of O=C(Nc1cccc(-c2ccc(-c3nc4cc(F)ccc4[nH]3)cc2)c1)c1ccncc1 strictly below 10%?
0

Is Inhibition of COc1ccc2nccc([C@@H](O)CN3CCC(NC(=O)C(c4ccsc4)N4CCN(c5ccccc5OC)CC4)CC3)c2c1 (some centres undefined) strictly below 10%?
0

Is Inhibition of CCOc1ccc2c(=NN=Cc3cccc(F)c3)cc(C)[nH]c2c1 strictly below 10%?
1
